B1: LINE1-mini (parent)
chain: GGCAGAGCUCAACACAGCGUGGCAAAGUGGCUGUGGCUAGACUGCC

variants of: B1; test: self-cleavage, relative activity (ratio to wild type); higher = more cleavage; in vitro, sequencing; the parent is a self-cleaving ribozyme
# self-cleavage annotations
// keep it numeric: no unit symbol after the value

>>> result_number("G22A G35C")
0.12
>>> result_number("C31G G40U")
0.03
>>> result_number("G21A U32A")
0.08
>>> result_number("A26U A41U")
0.75
>>> result_number("G36A G44C")
0.15
>>> result_number("A12U G27U")
0.23

The variant listed as G1C U32A shows self-cleavage equal to 0.02

Quick note, self-cleavage for G40U G44U landed at 0.12

# self-cleavage (variant: A26U U32C ) is 0.11

Please fill in: self-cleavage reported for G29U G33C = 0.06

The variant listed as A4C U28A shows self-cleavage equal to 0.07
